# system_tested: TPO-R (Homo sapiens, UniProt P40238)
# Construct: made in house
# Sequence (P40238 26-491 limits assumed): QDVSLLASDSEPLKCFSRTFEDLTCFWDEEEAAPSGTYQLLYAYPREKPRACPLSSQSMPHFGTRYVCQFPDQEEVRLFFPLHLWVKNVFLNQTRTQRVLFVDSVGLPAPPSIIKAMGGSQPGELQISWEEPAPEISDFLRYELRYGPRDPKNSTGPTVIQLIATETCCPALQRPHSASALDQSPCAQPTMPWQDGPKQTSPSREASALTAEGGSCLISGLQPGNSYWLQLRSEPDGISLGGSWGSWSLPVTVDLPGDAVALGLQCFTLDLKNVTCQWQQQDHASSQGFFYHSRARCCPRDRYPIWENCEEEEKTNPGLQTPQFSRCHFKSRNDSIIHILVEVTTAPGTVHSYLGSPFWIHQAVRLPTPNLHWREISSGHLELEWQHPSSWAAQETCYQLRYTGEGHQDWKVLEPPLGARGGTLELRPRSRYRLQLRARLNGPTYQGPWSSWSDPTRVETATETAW
# test_description: Competition binding assay (equilibrium binding ELISA, MBP-TPO156 tracer) on immobilized TPO-R
# conditions_used: Table 4, cyclized compounds; read-out: IC50
Where a SMILES comes first, the peptide text is derived from it.
readout_kind: IC50

>  <compound>
CC[C@H](C)[C@@H]1NC(=O)[C@H](Cc2c[nH]c3ccccc23)NC(=O)[C@H](CCC(=O)O)NC(=O)[C@H](CCCNC(=N)N)NC(=O)[C@H](CC(C)C)NC(=O)[C@H]([C@@H](C)O)NC(=O)[C@@H]2CCCN2C(=O)CNC(=O)[C@H](CC(=O)O)NC(=O)[C@H](C)NC(=O)[C@@H](N)CSSC[C@H](C(N)=O)NC(=O)[C@H](Cc2ccccc2)NC(=O)[C@H](CO)NC1=O (HELM PEPTIDE1{C.A.D.G.P.T.L.R.E.W.I.S.F.[dC].[am]}$PEPTIDE1,PEPTIDE1,1:R3-14:R3$$$V2.0)

>  <system_tested>
TPO-R (Homo sapiens, UniProt P40238)

>  <IC50>
≤ 0.5 µM

$$$$

Read the next record carefully.
In: IC50 of CC[C@H](C)[C@@H]1NC(=O)[C@H](Cc2c[nH]c3ccccc23)NC(=O)[C@H](CCC(=O)O)NC(=O)[C@H](CCCNC(=N)N)NC(=O)[C@H](CC(C)C)NC(=O)[C@H]([C@@H](C)O)NC(=O)[C@@H]2CCCN2C(=O)CNC(=O)[C@H](CC(=O)O)NC(=O)[C@H](C)NC(=O)C[S+]([O-])C[C@@H](C(N)=O)NC(=O)[C@H](Cc2ccccc2)NC(=O)[C@H](CO)NC1=O (some centres unmarked) (HELM PEPTIDE1{A.D.G.P.T.L.R.E.W.I.S.F.[O=C([C@H](C[S+]([O-])CC(=O)[*:3])N[*:1])[*:2]].[am]}$PEPTIDE1,PEPTIDE1,1:R1-13:R3$$$V2.0) on TPO-R (Homo sapiens, UniProt P40238)?
Out: ≤ 200 µM
